Target: SARS-CoV-2 Mac1 (Severe acute respiratory syndrome coronavirus 2, UniProt P0DTD1)
Experiment: biochemical
Conditions: read-out: %inhibition
observed.property: inhibition at 100 µM (%)

>>> observed_result("CO[C@H]1/C=C/O[C@@]2(C)Oc3c(C)c(O)c4c(c3C2=O)C2=NC3(CCN(CC(C)C)CC3)NC2=C(NC(=O)/C(C)=C\\C=C\\[C@H](C)[C@H](O)[C@@H](C)[C@@H](O)[C@@H](C)[C@H](OC(C)=O)[C@@H]1C)C4=O [Rifabutin]")
34.6
>>> observed_result("OC[C@@H](O)[C@H](O)[C@@H](O)CO [Xylitol]")
0
>>> observed_result("Cc1nc(C)c(Cl)c(O)c1Cl [Clopidol]")
0.707
>>> observed_result("OCc1ccccc1 [Benzyl alcohol]")
0
>>> observed_result("CC(C)(Oc1ccc(Cl)cc1)C(=O)O [Clofibric Acid]")
17.2
